Target: Butyrylcholinesterase (Equus caballus)
Assay: In vitro inhibitory concentration against Butyrylcholinesterase of horse serum; value ranges from 0.016-0.021

{"Compound": "C#CCNC1CCc2c(OC(=O)N(C)CC)cccc21 (stereo unspecified)", "Unit abbrev": "nM", "IC50": 19}

====

Target: UniProt:P19643
Assay: In vitro inhibitory concentration against Monoamine oxidase B of rat brain homogenates; value ranges from 0.3-1.2
Type: tissue-based
pIC50: −log10 of the molar value.

{"Molecule": "C#CCN(C)C(C)Cc1cccc(OC(=O)N(C)C)c1 (stereo unspecified)", "pIC50": 6.10}

====

Target: Acetylcholinesterase (Homo sapiens, UniProt P22303)
Sequence (P22303 whole entry): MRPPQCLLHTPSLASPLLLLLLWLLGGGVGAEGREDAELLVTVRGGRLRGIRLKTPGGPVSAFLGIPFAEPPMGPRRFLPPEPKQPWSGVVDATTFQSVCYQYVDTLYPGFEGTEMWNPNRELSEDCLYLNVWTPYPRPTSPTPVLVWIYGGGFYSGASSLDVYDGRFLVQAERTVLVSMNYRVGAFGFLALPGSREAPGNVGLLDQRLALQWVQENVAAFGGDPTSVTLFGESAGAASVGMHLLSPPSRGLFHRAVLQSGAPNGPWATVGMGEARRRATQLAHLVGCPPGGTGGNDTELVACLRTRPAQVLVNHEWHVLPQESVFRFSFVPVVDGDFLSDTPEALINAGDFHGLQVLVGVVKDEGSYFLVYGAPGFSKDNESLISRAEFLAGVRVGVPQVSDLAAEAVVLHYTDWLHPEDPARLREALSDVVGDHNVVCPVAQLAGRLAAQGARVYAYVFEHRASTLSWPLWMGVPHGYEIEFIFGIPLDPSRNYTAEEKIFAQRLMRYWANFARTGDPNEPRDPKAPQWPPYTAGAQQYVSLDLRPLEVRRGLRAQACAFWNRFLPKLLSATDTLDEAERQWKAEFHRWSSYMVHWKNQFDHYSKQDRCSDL
Experiment: In vitro inhibitory concentration against purified Acetylcholinesterase of human erythrocytes; value ranges from 13.6-27.3

{"Molecule": "C#CCNC(C)Cc1cccc(OC(=O)N(C)CCC)c1 (stereo unspecified)", "IC50 / µM": 19.1}

====

Target: Amine oxidase [flavin-containing] B (Rattus norvegicus, UniProt P19643)
Sequence (P19643 whole entry): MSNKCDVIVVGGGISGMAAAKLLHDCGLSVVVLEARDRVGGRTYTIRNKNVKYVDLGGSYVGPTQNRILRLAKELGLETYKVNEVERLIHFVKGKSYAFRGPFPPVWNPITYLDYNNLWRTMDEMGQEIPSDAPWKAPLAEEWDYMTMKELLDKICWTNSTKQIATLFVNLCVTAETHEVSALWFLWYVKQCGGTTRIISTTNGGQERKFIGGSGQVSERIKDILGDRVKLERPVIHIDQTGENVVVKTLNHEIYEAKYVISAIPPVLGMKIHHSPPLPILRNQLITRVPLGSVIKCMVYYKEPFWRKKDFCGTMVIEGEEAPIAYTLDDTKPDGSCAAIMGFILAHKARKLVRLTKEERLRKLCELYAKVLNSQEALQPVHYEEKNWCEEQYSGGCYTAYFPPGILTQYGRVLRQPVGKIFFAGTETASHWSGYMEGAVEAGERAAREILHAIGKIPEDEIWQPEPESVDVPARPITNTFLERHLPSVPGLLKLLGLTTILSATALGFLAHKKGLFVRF
Test: In vitro inhibitory concentration against Monoamine oxidase B of rat brain homogenates; value ranges from […]
Format: tissue-based

{"Molecule": "C#CCN(C)C1CCc2ccc(O)cc21 (stereo unspecified)", "IC50": "30 nM"}

====

Biological target: Amine oxidase [flavin-containing] A (Rattus norvegicus)
Assay: In vitro inhibitory concentration against Monoamine oxidase A of rat brain homogenates; value ranges from 14-340
Format: tissue-based
Quantity: IC50 (µM)

{"Compound string": "C#CCNCCc1cccc(O)c1", "Test system": "Amine oxidase [flavin-containing] A (Rattus norvegicus)", "Unit abbrev": "µM", "Value reported": 67}

====

Target: UniProtKB P19643
Assay: In vitro inhibitory concentration against Monoamine oxidase B of rat brain homogenates; value ranges from 0.019-0.021
Type: tissue-based
pIC50: −log10 of the molar value.

{"Compound string": "C#CCN(C)[C@@H]1CCc2ccc(O)cc21", "pIC50": 7.70}

====

Target: Acetylcholinesterase (Homo sapiens, UniProt P22303)
Test: In vitro inhibitory concentration against purified Acetylcholinesterase of human erythrocytes; value ranges from 1.7-2.5
pIC50: −log10 of the molar value.

{"Compound string": "C#CCN(C)[C@H](C)Cc1cccc(OC(=O)N(C)CCCCCC)c1", "Test system": "Acetylcholinesterase (Homo sapiens, UniProt P22303)", "pIC50": 5.70}

====

Biological target: Amine oxidase [flavin-containing] B (Rattus norvegicus)
Assay: In vitro inhibitory concentration against Monoamine oxidase B of rat brain homogenates; value ranges from 18-59
Type: tissue-based

{"Compound": "C#CCNC1CCc2c(Cl)cc(OC(=O)N(C)CCC)cc21.Cl (stereo unspecified)", "IC50 [µM]": 32}

====

Target: Butyrylcholinesterase (Equus caballus, UniProt Q9N1N9)
Sequence (Q9N1N9 whole entry): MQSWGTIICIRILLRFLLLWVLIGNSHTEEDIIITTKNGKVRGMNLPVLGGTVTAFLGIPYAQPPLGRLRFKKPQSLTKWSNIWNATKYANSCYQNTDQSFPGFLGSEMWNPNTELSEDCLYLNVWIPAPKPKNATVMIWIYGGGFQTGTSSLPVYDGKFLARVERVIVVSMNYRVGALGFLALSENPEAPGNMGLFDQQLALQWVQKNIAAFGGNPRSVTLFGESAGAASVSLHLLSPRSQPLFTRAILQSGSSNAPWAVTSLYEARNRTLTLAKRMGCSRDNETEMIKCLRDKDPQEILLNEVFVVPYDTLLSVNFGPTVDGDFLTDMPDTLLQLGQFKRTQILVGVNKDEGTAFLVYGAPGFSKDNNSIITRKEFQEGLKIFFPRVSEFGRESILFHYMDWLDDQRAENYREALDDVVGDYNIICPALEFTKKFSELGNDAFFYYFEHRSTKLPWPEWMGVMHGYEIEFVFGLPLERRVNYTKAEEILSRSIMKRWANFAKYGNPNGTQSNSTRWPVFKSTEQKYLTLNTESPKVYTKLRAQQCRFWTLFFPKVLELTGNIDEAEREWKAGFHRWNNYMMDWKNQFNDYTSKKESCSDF
Assay: In vitro inhibitory concentration against Butyrylcholinesterase of horse serum; value ranges from 4.9-11.2

{"Molecule": "C#CCNC1CCc2ccc(OC(=O)N(C)c3ccc(OC)cc3)cc21 (stereo unspecified)", "Unit abbrev": "µM", "IC50": 6.4}

====

Target: Butyrylcholinesterase (Equus caballus)
Assay: In vitro inhibitory concentration against Butyrylcholinesterase of horse serum; value ranges from 0.22-1.54
Quantity: IC50 (nM)

{"Compound string": "C#CCNCCc1cccc(OC(=O)N(C)CC)c1", "Quantity": "IC50", "Value reported": 540}

====

Molecular target: Amine oxidase [flavin-containing] B (Rattus norvegicus)
Assay: In vitro inhibitory concentration against Monoamine oxidase B of rat brain homogenates; value ranges from 30-230
Type: tissue-based

{"Compound string": "C#CCN[C@@H]1CCc2ccc(OC(=O)N(C)CCCC)cc21", "IC50": "150 µM"}

====

Molecular target: Butyrylcholinesterase (Equus caballus)
Assay: In vitro inhibitory concentration against Butyrylcholinesterase of horse serum; value ranges from 0.21-1.26
pIC50: −log10 of the molar value.

{"Compound string": "C#CCN(C)[C@@H]1CCc2ccc(OC(=O)N(C)CC)cc21", "pIC50": 6.26}

====

Target: Acetylcholinesterase (Homo sapiens)
Experiment: In vitro inhibitory concentration against purified Acetylcholinesterase of human erythrocytes; value ranges from 12.6-74.0
pIC50: −log10 of the molar value.
Quantity: pIC50

{"Molecule": "C#CCNC(C)Cc1cccc(OC(=O)N(C)CC)c1 (stereo unspecified)", "Value reported": 4.47}

====

Biological target: UniProtKB P21396
Experiment: In vitro inhibitory concentration against Monoamine oxidase A of rat brain homogenates; value ranges from 4.7-16.8
Assay type: tissue-based
pIC50: −log10 of the molar value.
Quantity: pIC50

{"Molecule": "C#CCN(C)C(C)Cc1cccc(O)c1 (stereo unspecified)", "Value reported": 5.05}

====

Biological target: Butyrylcholinesterase (Equus caballus, UniProt Q9N1N9)
pIC50: −log10 of the molar value.

{"Molecule": "C#CCN(C)C(C)Cc1cccc(OC(=O)N(C)CCC)c1 (stereo unspecified)", "pIC50": 4.64}

====

Biological target: UniProtKB P21396
Assay: In vitro inhibitory concentration against Monoamine oxidase A of rat brain homogenates; value ranges from 230-820
Format: tissue-based

{"Compound": "C#CC(C)NCCc1cccc(OC(=O)N(C)C)c1 (stereo unspecified)", "IC50 [µM]": 440}

====

Target: Acetylcholinesterase (Homo sapiens)
Test: In vitro inhibitory concentration against purified Acetylcholinesterase of human erythrocytes; value ranges from 0.54-0.56

{"Compound": "C#CCNC1CCc2ccc(OC(=O)N(C)c3ccccc3)cc21 (stereo unspecified)", "IC50 (nM)": 550}

====

Molecular target: Acetylcholinesterase (Homo sapiens)
Assay: In vitro inhibitory concentration against purified Acetylcholinesterase of human erythrocytes; value ranges from 7.5-19.5

{"Compound string": "C#CCN[C@@H]1CCc2ccc(OC(=O)N(C)CCCC)cc21", "IC50 [µM]": 11.6}

====

Target: Amine oxidase [flavin-containing] A (Rattus norvegicus, UniProt P21396)
Sequence (P21396 whole entry): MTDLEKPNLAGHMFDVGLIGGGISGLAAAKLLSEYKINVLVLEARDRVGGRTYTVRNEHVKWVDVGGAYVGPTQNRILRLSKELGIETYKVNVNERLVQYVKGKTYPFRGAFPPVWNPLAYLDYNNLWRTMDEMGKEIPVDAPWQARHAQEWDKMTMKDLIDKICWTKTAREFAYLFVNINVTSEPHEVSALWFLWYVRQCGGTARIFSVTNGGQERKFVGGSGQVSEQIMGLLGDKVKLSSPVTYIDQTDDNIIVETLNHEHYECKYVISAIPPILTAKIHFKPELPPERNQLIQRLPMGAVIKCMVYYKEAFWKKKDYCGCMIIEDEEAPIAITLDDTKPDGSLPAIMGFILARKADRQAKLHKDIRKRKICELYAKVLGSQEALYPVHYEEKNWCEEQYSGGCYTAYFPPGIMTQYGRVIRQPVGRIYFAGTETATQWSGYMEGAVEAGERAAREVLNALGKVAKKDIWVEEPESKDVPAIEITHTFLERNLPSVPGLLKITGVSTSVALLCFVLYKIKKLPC
Assay: In vitro inhibitory concentration against Monoamine oxidase A of rat brain homogenates; value ranges from 30-230
Type: tissue-based
pIC50: −log10 of the molar value.

{"Compound": "CN(C)C(=O)Oc1ccc2c(c1)C(N)CC2 (stereo unspecified)", "Test system": "Amine oxidase [flavin-containing] A (Rattus norvegicus, UniProt P21396)", "pIC50": 4.10}

====

Target: Amine oxidase [flavin-containing] B (Rattus norvegicus, UniProt P19643)
Design: species or system Brain
Quantity: IC50 (µM)

{"Compound string": "C#CCNCCc1cccc(OC(=O)N(C)CC)c1", "Quantity": "IC50", "Unit abbrev": "µM", "Value reported": 7.8}

====

Molecular target: Acetylcholinesterase (Homo sapiens)
Assay: In vitro inhibitory concentration against purified Acetylcholinesterase of human erythrocytes; value ranges from 0.18-0.44

{"Compound string": "CN(C)C(=O)Oc1cccc(CCN)c1", "Test system": "Acetylcholinesterase (Homo sapiens)", "IC50": "230 nM"}

====

Molecular target: UniProtKB P22303
Experiment: In vitro inhibitory concentration against purified Acetylcholinesterase of human erythrocytes; value ranges from 3.87-11.9
pIC50: −log10 of the molar value.
Quantity: pIC50

{"Compound": "CCN(C)C(=O)Oc1ccc2c(c1)C(N)CCC2 (stereo unspecified)", "Value reported": 5.21}

# credit: ChEMBL document CHEMBL1135657
